System: Vero E6 infected with SARS-CoV-2
Assay: inhibition of SARS-CoV-2 cytopathic effect; higher = more antiviral protection, active = above 15
Settings: 833.33 nM; 48 h
Please go through the items and note down their inhibition of SARS-CoV-2 cytopathic effect.
Give the number; % is assumed, so skip it.

Under Vero E6 infected with SARS-CoV-2: inhibition of SARS-CoV-2 cytopathic effect value of "OCc1ccc(CO)o1" ?
2.21

// fetch Vero E6 infected with SARS-CoV-2 inhibition of SARS-CoV-2 cytopathic effect for "C=C1/C(=C\C=C2/CCC[C@]3(C)[C@@H]([C@H](C)CCCC(O)(C(F)(F)F)C(F)(F)F)CC[C@@H]23)C[C@@H](O)C[C@@H]1O"
0.88

So what inhibition of SARS-CoV-2 cytopathic effect did "Cc1[nH]cnc1CN1CCc2c(c3ccccc3n2C)C1=O" get with Vero E6 infected with SARS-CoV-2?
-1.58

Param readout = inhibition of SARS-CoV-2 cytopathic effect; param system = Vero E6 infected with SARS-CoV-2; param query = "CCNC(=O)CCC/C=C\C[C@@H]1[C@@H](/C=C/[C@@H](O)CCc2ccccc2)[C@H](O)C[C@@H]1O" ; response: value
-0.88

So what inhibition of SARS-CoV-2 cytopathic effect did CC(C)=CCC/C(C)=C/CC/C(C)=C/CSc1ccccc1C(N)=O [farnesyl-thiosalicylic-acid-amide] get with Vero E6 infected with SARS-CoV-2?
-5.68

For the record NC1CCN(c2c(F)cc3c(=O)c(C(=O)O)cn(C4CC4)c3c2Cl)C1 (stereo not drawn) , what value of inhibition of SARS-CoV-2 cytopathic effect is listed for Vero E6 infected with SARS-CoV-2?
-0.8

Kindly state the measured inhibition of SARS-CoV-2 cytopathic effect obtained for "CC1(N)CCN(c2cnc(-c3cccc(Cl)c3Cl)c(N)n2)CC1" with Vero E6 infected with SARS-CoV-2.
-1.51

Recall the recorded inhibition of SARS-CoV-2 cytopathic effect for "OCCC#Cc1nc(-c2ccc(F)cc2)c(-c2ccncc2)n1CCCc1ccccc1" with Vero E6 infected with SARS-CoV-2 and state it.
0.51

###

Tested on: Vero E6 infected with SARS-CoV-2
Test: inhibition of SARS-CoV-2 cytopathic effect; higher = more antiviral protection, active = above 15
Conditions: 833.33 nM; 48 h
Pick from 1 (active), 0 (inactive) when you respond.

What classification did O=S(=O)(O)Oc1ccc(C(c2ccc(OS(=O)(=O)O)cc2)c2ccccn2)cc1 [sodium-picosulfate] end up with in this test?
0

Hi, sorry to bother you, what did the test record for Cc1ccc2c(c1)c1c3n2CCNC3CCC1 (stereo not given) ?
0

Give the logged outcome of this assay for the following compound: "COc1cc2nccc(Oc3ccc(NC(=O)NC4CC4)c(Cl)c3)c2cc1C(N)=O"
0

Please let me know the test result on file for "CCN1CCN(c2cc(-c3ccc(F)cc3)c3c(n2)CCCCCC3)CC1" .
0

What did this assay record as the result for O=C(NCc1ccc(OC(F)(F)F)cc1)C1c2ccccc2C(=O)N1C1CCOCC1 (stereo not given) ?
0

Can you look up the reported call for "CCCCOc1ccc(C(=O)Nc2ccc(F)cc2F)cc1" for me?
0

What did the test return for "COc1cc(N2CCOCC2)ccc1Nc1ncc(Cl)c(Nc2ccccc2NS(C)(=O)=O)n1" ?
0

Call for entry C=CC(=O)N1CCN(C(=O)CNc2cc(I)c(Cl)cc2O)CC1 [K-Ras(G12C)-inhibitor-12] :
1

Please let me know the test result on file for "C#Cc1cccc2c1c(C(=O)c1ccc(Cn3c(C)nc4cnccc43)c(F)c1)cn2C(=O)N(C)C" .
0

Called result for "CC1(C)CC(=O)c2c(C(F)(F)F)nn(-c3ccc(C(N)=O)c(N[C@H]4CC[C@H](OC(=O)CN)CC4)c3)c2C1"
0

Check the results log: what was the call for "O=C(Nc1ccccc1Br)N[C@@H]1CCN(c2ccc(C(F)(F)F)cn2)C1" ?
0

For "N#CC(c1ccccc1)(c1ccccc1)c1ccccc1Cl" , what call appears in the results of this test?
0

Answer briefly: the call reported for Cc1ccc2c(c1)C(=O)[C@]1(O)CCN(c3ccccc3)C1=N2 (racemic) [blebbistatin-(+/-)] in this assay.
0

Per the assay record, what outcome was assigned to O=c1[nH]cnc2c1cnn2[C@@H]1O[C@H](CO)[C@@H](O)[C@H]1O [allopurinol-riboside] ?
0

Any idea what this test logged for "C[C@@H](CN1CC(=O)NC(=O)C1)N1CC(=O)NC(=O)C1" ?
0

Assay result, entry "CCCCNNC(=O)c1ccc(Br)cc1" — outcome?
0

GET /call?item= CN(C)CCOC(=O)C(c1ccccc1)C1(O)CCCC1 (stereo not given) [cyclopentolate] returns the recorded outcome of this test.
0

What did the test return for "NC[C@H]1O[C@H](O[C@H]2[C@H](O)[C@@H](O[C@H]3O[C@H](CO)[C@@H](O)[C@H](N)[C@H]3O)[C@H](N)C[C@@H]2N)[C@H](N)C[C@@H]1O" ?
0

I would be grateful if you could indicate the recorded call for "COC(=O)/C=C/c1cccc(N(Cc2ccc(-c3ccc(N(C)C)cc3)cc2)C(=O)C2CCCCC2)c1" .
0

I'd appreciate the recorded outcome for "CC(=O)OCC1=C(C(=O)O)N2C(=O)[C@@H](N)[C@H]2SC1" from this test.
0

Field: outcome | Entry: "CCCc1cc(=O)[nH]c(=S)[nH]1"
0

What outcome does the record of this test show for "O=C1N[C@@H]2[C@@H](O)[C@@H](O)[C@H](O)[C@@H](CO)N2C1=O" ?
0

Please let me know the test result on file for "FC(F)(F)c1cc(CO[C@H]2CCCN[C@H]2c2ccccc2)cc(C(F)(F)F)c1" .
0

Answer briefly: the call reported for "Cc1c(-c2ccc(-c3ccccc3F)cc2)nc2ccc(F)cc2c1C(=O)O" in this assay.
0

Tell me the recorded outcome of this test for "CC1=NN(c2ccc(C)c(C)c2)C(=O)/C1=N\Nc1cccc(-c2cccc(C(=O)O)c2)c1O" .
0

Record request — test call for Cc1cccc(C)c1NC(=O)CN1CCCCCC1 [pincainide]
0

Could you kindly confirm the outcome this assay logged for CC(=O)O[C@]1(C(C)=O)CC[C@H]2[C@@H]3CCC4=CC(=O)CCC4=C3[C@@H](c3ccc(N(C)C)cc3)C[C@@]21C [Ulipristal acetate] ?
0

// param item: "COc1ccc(C(=O)c2ccccc2O)c(O)c1" ; yields the recorded call
0

What classification did "c1ccc(CNCc2ccc(CN3CCCNCCNCCCNCC3)cc2)nc1" end up with in this test?
0

Could you check what this test reported for "O=C(O)COc1cccc(-c2ocnc2-c2nc(-c3ccccc3)c(-c3ccccc3)o2)c1" ?
0

Can you look up the reported call for "CCCCCCCC/C=C\CCCCCCCC(=O)NCc1ccc(O)c(OC)c1" for me?
0

What classification did "C=C[C@H]1CN2CC[C@H]1C[C@H]2[C@H](O)c1ccnc2ccccc12" end up with in this test?
0

Dear all, I need the recorded test outcome for "COc1cc(N)c(Cl)cc1C(=O)OCCCN1CCCCC1" , thank you.
0

I would be grateful if you could indicate the recorded call for "c1ccc2c(c1)CN1CCCC1=N2" .
0

Hi, do you know how "CC(C)(C)OC(=O)N[C@H]1CCCCC/C=C\[C@@H]2C[C@@]2(C(=O)NS(=O)(=O)C2CC2)NC(=O)[C@@H]2C[C@@H](OC(=O)N3Cc4cccc(F)c4C3)CN2C1=O" came out in this test?
0

###

Assignment: determine reported inhibition of SARS-CoV-2 cytopathic effect for the given molecules.
Test system: Vero E6 infected with SARS-CoV-2
Experiment: inhibition of SARS-CoV-2 cytopathic effect; higher = more antiviral protection, active = above 15
Conditions: 8.33 nM; 48 h
# value in %; strip the unit string

Find the recorded inhibition of SARS-CoV-2 cytopathic effect belonging to "CCc1c2c(nc3ccc(OC(=O)N4CCC(N5CCCCC5)CC4)cc13)-c1cc3c(c(=O)n1C2)COC(=O)[C@]3(O)CC" and report it.
1.89

Name the recorded inhibition of SARS-CoV-2 cytopathic effect for "C=C(C)[C@H]1CN[C@H](C(=O)O)[C@H]1CC(=O)O" .
0.99

Item "CC(=O)[C@H]1CC[C@H]2[C@@H]3CC[C@H]4C[C@](C)(O)CC[C@]4(C)[C@H]3CC[C@]12C" has what recorded inhibition of SARS-CoV-2 cytopathic effect?
4.47

Using the record for "COc1ccccc1N1CCN(CCN(C(=O)C2CCCCC2)c2ccccn2)CC1" , report its inhibition of SARS-CoV-2 cytopathic effect.
-4.61

Which inhibition of SARS-CoV-2 cytopathic effect value belongs to "C=C1CC[C@H](O)C/C1=C/C=C1\CCC[C@]2(C)[C@@H]([C@H](C)CCCC(C)C)CC[C@@H]12" ?
-2.07

Value lookup for inhibition of SARS-CoV-2 cytopathic effect; key = "CO[C@H](C(=O)[C@@H](O)[C@@H](C)O)[C@@H]1Cc2cc3cc(O[C@H]4C[C@@H](O[C@H]5C[C@@H](O)[C@H](O)[C@@H](C)O5)[C@@H](O)[C@@H](C)O4)c(C)c(O)c3c(O)c2C(=O)[C@H]1O[C@H]1C[C@@H](O[C@H]2C[C@@H](O[C@H]3C[C@](C)(O)[C@H](O)[C@@H](C)O3)[C@H](O)[C@@H](C)O2)[C@H](O)[C@@H](C)O1"
3.18
